Source: patent US10517889B2

Quick list: % inhibition of SMAD7 mRNA expression per entry.
# System: human SMAD7 mRNA
# procedure.details: Antisense inhibition of human SMAD7 mRNA expression in Hep3B cells by 5-10-5 MOE gapmers, single concentration, electroporation, RT-PCR (Example 1, Study 1 and 2)
# Format: cell-based
# experimental.conditions: electroporation, 15,000 nM antisense oligonucleotide (Study 2), 5-10-5 MOE gapmers targeting SEQ ID NO: 1 and 2
Strand notation (5' to 3'): a small letter for the sugar, then the base; units joined by * are phosphorothioate-linked, units joined directly phosphodiester-linked; [ ] holds rarer units or linkages, { } end groups; capitals alone tell only the bases. e = 2'-O-(2-methoxyethyl) (MOE); [5mC] = 5-methylcytosine; d = 2'-deoxy (DNA)

{"columns": ["substance", "tested.on", "% inhibition of SMAD7 mRNA expression (%)"],
 "data": [
  ["771396 (antisense e[5mC]*eT*eG*e[5mC]*eG*d[5mC]*dT*d[5mC]*d[5mC]*dG*dG*d[5mC]*dT*dG*d[5mC]*e[5mC]*e[5mC]*e[5mC]*eA*e[5mC]) [compound 771396]", "human SMAD7 mRNA", 48],
  ["771882 (antisense eG*e[5mC]*eA*eT*e[5mC]*dA*dT*dG*dA*dA*dA*dA*dT*d[5mC]*dT*eT*eA*eA*eT*eA) [compound 771882]", "human SMAD7 mRNA", 35],
  ["771865 (antisense eA*eT*eA*eG*eG*dG*dA*dT*dA*dT*d[5mC]*dT*d[5mC]*dA*dT*e[5mC]*eA*eA*eT*eA) [compound 771865]", "human SMAD7 mRNA", 38]
]}
